# assay text: NCI Yeast Anticancer Drug Screen. Data for the rad14 strain (AID 159);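 note: 0% = growth of vehicle-treated control cultures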
# condition set: S. cerevisiae rad14 strain growth inhibition; at 11.0 µM
About 79,000 compounds went through this panel and 15% of them were active in at least one assay; those are over-represented in the sample as a whole. Activity calls are given as the source filed them. Cut-off read from the data, not from the text of the source: active = growth inhibition above about 70%; inactive = the rest. Residues, ends and D or L forms follow the SMILES beside them. *: point of attachment. CH2Cl = ClC*
Outcomes: y for active, n for inactive

compound: O=Nn1c2ccccc2c2ccccc21
qualitative label: n
--
compound: Nc1nc2c(c(=O)[nH]1)NC(CCNc1ccc(C(=O)O)cc1)CN2 (stereo not drawn)
qualitative label: n
--
compound: N#C/C(=C/c1c(Cl)cccc1Cl)C(N)=O
qualitative label: n
--
compound: CC(=O)Oc1ccc(N2C(=O)C3c4[nH]c5ccccc5c4C4CCC(C(C)(C)C)CC4C3C2=O)cc1 (stereo not drawn)
qualitative label: y
--
compound: CC(=O)NC(CC(C)C)C(=O)NC(Cc1ccccc1)C(=O)CCl (stereo not drawn) (Ac-Leu-Phe-CH2Cl; configuration not given here)
qualitative label: n
--
compound: N#CC(=C1C=CC(=NO)C=C1)c1ccccc1
qualitative label: y
--
compound: O=NN(CCCl)C(=O)NC1CCCCC1
qualitative label: n
--
compound: O=C1c2c(O)cccc2-c2nn(CCNCCO)c3ccc(NCCNCCO)c1c23
qualitative label: n
--
compound: O=C1C(Cl)=C(Cl)C(Cl)(Cl)C(Cl)C1(Cl)Cl (stereo not drawn)
qualitative label: n
--
compound: [N-]=[N+]=NC(c1ccccc1)(c1ccccc1)c1ccccc1
qualitative label: n
--
compound: CCc1[nH]nc(C(N)=O)c1N=NN(C)C
qualitative label: n
--
compound: Nc1ccc2c(=S)c3ccccc3[nH]c2c1
qualitative label: n
--
compound: O=c1[nH]c2ccccc2c2nc3ccccc3n12
qualitative label: n
--
compound: NC(N)=NCCCS(=O)(=O)Nc1ccc(Nc2c3ccccc3nc3cc([N+](=O)[O-])ccc23)cc1
qualitative label: n
--
compound: N#C/C(=C/N1C(=O)/C(=C/c2ccc([N+](=O)[O-])cc2)SC1=S)c1nc2ccccc2s1
qualitative label: n
--
compound: c1ccc(N2N=C3N(c4ccccc4)C2N3c2ccccc2)cc1
qualitative label: n
--
compound: S=P(N1CC1)(N1CC1)N1CC1
qualitative label: n
--
compound: Cc1cc(C)c(N2C(=O)CC(Sc3ccccc3N)C2=O)c(C)c1 (stereo not drawn)
qualitative label: n
--
compound: CCCCC1=NNC(=O)C1
qualitative label: n
--
compound: CNc1ccc(Cc2c[nH]c3ccccc23)cc1
qualitative label: n
--
compound: c1ccc2c(c1)Cn1c-2nc2ccccc21
qualitative label: n
--
compound: CC(=O)[C@]1(O)Cc2c(O)c3c(c(O)c2[C@@H](OC2CC(N)C(O)C(C)O2)C1)C(=O)c1c(OCc2ccccc2)cccc1C3=O (stereo partly drawn)
qualitative label: n
--
compound: O=[N+]([O-])c1cc(S(=O)(=O)Nc2ccccc2)ccc1Cl
qualitative label: n

----------
# assay text: NCI Yeast Anticancer Drug Screen. Data for the mlh1 strain (AID 171);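 note: 0% = growth of vehicle-treated control cultures of the same strain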
# condition set: S. cerevisiae mlh1 strain growth inhibition; at 11.0 µM
The panel holds about 79,000 compounds, 15% with a hit somewhere; the sample as a whole holds those more often. Calls of active or inactive are those of the source. Rule as the data show it: active = growth inhibition above about 70%; inactive = the rest.
Labels: active, inactive

compound: O=C(NCCCCCN1CCC2(CCCCC2)CC1)C(C1CCCCC1)C1CCCCC1
qualitative label: active
//
compound: OB(O)c1ccccc1C#Cc1ccccc1B(O)O
qualitative label: inactive
//
compound: O=[N+]([O-])c1c(/C=N/Nc2ccccc2)oc(-c2ccc3c(c2)OCO3)c1-c1ccc2c(c1)OCO2
qualitative label: inactive
//
compound: CC(=O)O[C@H]1C(=O)[C@@]2(C)[C@H]([C@H](OC(=O)c3ccccc3)[C@]3(O)C[C@H](OC(=O)[C@H](O)[C@@H](NC(=O)c4ccccc4)c4ccccc4)C(C)=C1C3(C)C)[C@]1(OC(C)=O)CO[C@@H]1C[C@@H]2O
qualitative label: inactive
//
compound: Cc1cc(N=C2C=CC(=[N+](C)C)C=C2)c(N)cc1N
qualitative label: inactive
//
compound: CC1C(C#N)(C#N)C(C#N)=C(N)C1(Cl)[N+](=O)[O-] (stereo unspecified)
qualitative label: inactive
//
compound: Cc1nc2c(ncn2CCO)c(=O)[nH]1
qualitative label: inactive
//
compound: OCCN(CCO)c1ccc2c(c1)Cc1ccccc1-2
qualitative label: inactive
//
compound: O=C(N/N=C\c1c(Cl)cccc1Cl)N/N=C/c1c(Cl)cccc1Cl
qualitative label: inactive
//
compound: CCCCCCCCN1C(=O)c2ccccc2C1=O
qualitative label: inactive
//
compound: CCN(CC)CCNC(=O)c1nn(-c2ccc(Cl)cc2)c2c1CCc1cc(OC)ccc1-2
qualitative label: inactive
//
compound: COc1ccc(N)c2c1C(=O)c1ccccc1C2=O
qualitative label: inactive
//
compound: Oc1ccccc1N=Cc1ccc(Cl)cc1
qualitative label: inactive
//
compound: O=S(=O)(c1cc(Cl)ccc1O)c1cc(Cl)ccc1O
qualitative label: active
//
compound: COc1ccc(/C=C2\SC(=S)N(C=C3C(=O)NC(=S)NC3=O)C2=O)cc1OC
qualitative label: inactive
//
compound: O=C1c2c(O)cccc2-c2nn(CCNCCO)c3ccc(NCCNCCO)c1c23
qualitative label: inactive
//
compound: CCC(NC(C)c1ccccc1)C(=O)c1ccc(OCc2ccccc2)c(OCc2ccccc2)c1 (stereo unspecified)
qualitative label: inactive
//
compound: [N-]=[N+]=NC(c1ccccc1)(c1ccccc1)c1ccccc1
qualitative label: inactive
//
compound: CC[C@@]1(OC(=O)CN(C)C)C(=O)OCc2c1cc1n(c2=O)Cc2cc3c(N)cccc3nc2-1
qualitative label: inactive
//
compound: O=C1c2ccccc2CCC1(Br)Br
qualitative label: active
//
compound: CC(=O)N1C(=O)/C(=C\C(=O)c2ccc(Cl)cc2)c2ccccc21
qualitative label: inactive

----------
growth inhibition: recorded values
# assay text: NCI Yeast Anticancer Drug Screen. Data for the rad50EPP+ strain (AID 151);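 note: 0% = growth of vehicle-treated control cultures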
# condition set: S. cerevisiae rad50 mutant strain, at 100.0 µM, stronger effect = higher value
About 79,000 compounds went through this panel and 15% of them were active in at least one assay; those are over-represented in the sample as a whole.

molecule: COc1ccc(/C(C#N)=C/c2ccc(OC)c(OC)c2)cc1
unit of measure: %
growth inhibition: 54
//
molecule: CN(C)CCN1C(=O)c2cccc3cc([N+](=O)[O-])cc(c23)C1=O
unit of measure: %
growth inhibition: 83
//
molecule: S=c1[nH]c2c(Cl)c(Cl)c(Cl)c(Cl)c2[nH]1
unit of measure: %
growth inhibition: 95
//
molecule: CCOC(=O)C1=C(C)NC(C)=C(C(=O)OCC)C1c1ccccc1Cl
unit of measure: %
growth inhibition: 26
//
molecule: CN(C)c1ccc(N=Nc2ccccn2)cc1
unit of measure: %
growth inhibition: 85
//
molecule: O=C1C(Cl)=C(Cl)C(Cl)(Cl)C(Cl)C1(Cl)Cl (stereo unspecified)
unit of measure: %
growth inhibition: 99

----------
Catalogue of growth inhibition readings, one per entry.
# assay text: NCI Yeast Anticancer Drug Screen. Data for the mlh1 strain (AID 171);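 note: 0% = growth of vehicle-treated control cultures of the same strain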
# condition set: S. cerevisiae mlh1 strain growth inhibition; at 33.0 µM; stronger effect = higher value
Compounds without any hit were thinned out: in the full panel of roughly 79,000, 15% have a hit. Calls of active or inactive are those of the source. Rule as the data show it: active = growth inhibition above about 70%; inactive = the rest.

molecule: COc1cc(CNc2ccc(C(C)C)cc2)cc(OC)c1OC
growth inhibition: -20% (inactive)

molecule: CN(C)c1ccc(N=Nc2ccccn2)cc1
growth inhibition: 93% (active)

molecule: N#C/C(=C/c1c(Cl)cccc1Cl)C(N)=O
growth inhibition: 71% (active)

molecule: Cc1nc2c(ncn2CCO)c(=O)[nH]1
growth inhibition: -18% (inactive)

molecule: CC1CCC2(C(=O)O)CCC3(C)C(=CCC4C5(C)CC(O)C(O)C(C)(CO)C5C(O)CC43C)C2C1C (configuration not stated)
growth inhibition: -2% (inactive)

molecule: CC(=O)O[C@H]1C(=O)[C@@]2(C)[C@H]([C@H](OC(=O)c3ccccc3)[C@]3(O)C[C@H](OC(=O)[C@H](O)[C@@H](NC(=O)c4ccccc4)c4ccccc4)C(C)=C1C3(C)C)[C@]1(OC(C)=O)CO[C@@H]1C[C@@H]2O
growth inhibition: -4% (inactive)

molecule: CN(C)CC1CCCc2ccccc2C1=O (configuration not stated)
growth inhibition: 76% (active)

molecule: On1cnc(=S)c2[nH]cnc21
growth inhibition: -29% (inactive)

molecule: CC(=O)C1=C(C)O/C(=C/c2cccc(Cl)c2)C1=O
growth inhibition: 9% (inactive)

molecule: COc1ccc2oc(-c3ccc(Cl)cc3)c(N3CCN(C)CC3)c2c1
growth inhibition: 99% (active)

molecule: O=C(/C=N/O)Nc1cc(Cl)c(Cl)cc1Cl
growth inhibition: 37% (inactive)

molecule: S=c1[nH]c2c(Cl)c(Cl)c(Cl)c(Cl)c2[nH]1
growth inhibition: 98% (active)

molecule: CCCCCCCCN1C(=O)c2ccccc2C1=O
growth inhibition: 7% (inactive)

molecule: NNC(=S)Nc1cccc(Cl)c1
growth inhibition: 45% (inactive)

molecule: CN(N=O)c1ccc(/C=C/c2ccnc3ccccc23)cc1
growth inhibition: 31% (inactive)

molecule: OC(CN1CCCCC1)c1cc(Cl)c(Cl)c(Cl)c1 (configuration not stated)
growth inhibition: 18% (inactive)

molecule: CSc1s[s+]c(SC)c1-c1ccccc1
growth inhibition: 52% (inactive)

molecule: CCN(CC)CC(O)c1cc(-c2ccc(Cl)cc2)nc2c(-c3ccccc3)cccc12 (configuration not stated)
growth inhibition: 98% (active)

molecule: NP1(Oc2ccc(F)cc2)=NP(N)(Oc2ccc(F)cc2)=NP(Oc2ccc(F)cc2)(Oc2ccc(F)cc2)=N1 (configuration not stated)
growth inhibition: 15% (inactive)

molecule: [Pt].c1ccc(P(CCP(c2ccccc2)c2ccccc2)CCP(c2ccccc2)c2ccccc2)cc1
growth inhibition: 94% (active)

molecule: CC[C@@]1(OC(=O)CN(C)C)C(=O)OCc2c1cc1n(c2=O)Cc2cc3c(N)cccc3nc2-1
growth inhibition: 28% (inactive)

molecule: N#C/C(=C\c1ccccc1)c1ccccc1F
growth inhibition: -6% (inactive)

Where these numbers come from: PubChem BioAssay (NCI)
